tested on: human melanoma A375P; experiment: Methylene Blue Growth Inhibition Assay (Assay 2), A375P; assay type: cell-based; conditions: B-Raf V599E, Ras wt
Observable: IC50

Lookup: Quickly give me recorded IC50 for CN(C)CCOc1ccc(-c2cc(-c3ccc4c(c3)CCC4=NO)c(-c3ccncc3)o2)cc1
Found: 0.081 µM
